Experiment: Absorption wavelength of the cyanine dyes in methanol (halo substitution effect)
Type: physicochemical
Conditions: Table 2
From the text: [table] Design Principle: We analyzed the properties of a dye scaffold and related compounds and the corresponding substitution effects on the excitation and emission wavelengths. The small size of fluorine is unlikely to produce steric effects, therefore, we explored the electronic effects of fluorine and related substitutions. […]
The following compounds are shown together with reported λMeOH values.
All answers are understood in nm, so give the number only.

Field: example entries. Status: answers known.
CC1(C)C(/C=C/C2=C(c3c(F)cc(C(=O)O)cc3F)C(=C/C=C3/N(CCCCS(=O)(=O)[O-])c4ccc(S(=O)(=O)[O-])cc4C3(C)C)/CCC2)=[N+](CCCCS(=O)(=O)[O-])c2ccc(S(=O)(=O)[O-])cc21.[Na+].[Na+].[Na+] ... 782
CC1(C)C(/C=C/C2=C(c3c(Cl)cccc3Cl)C(=C/C=C3/N(CCCS(=O)(=O)[O-])c4ccc(S(=O)(=O)[O-])cc4C3(C)C)/CC(C(=O)O)C2)=[N+](CCCS(=O)(=O)[O-])c2ccc(S(=O)(=O)[O-])cc21.[Na+].[Na+].[Na+] (stereo not shown) ... 782
CC1(C)C(/C=C/C2=C(c3c(F)cc(F)cc3F)C(=C/C=C3/N(CCCCS(=O)(=O)[O-])c4ccc(S(=O)(=O)[O-])cc4C3(C)C)/CCC2)=[N+](CCCCS(=O)(=O)[O-])c2ccc(S(=O)(=O)[O-])cc21.[Na+].[Na+].[Na+] ... 785

Proceed to the following item.
Q: Reported λMeOH, compound CC1(C)C(/C=C/C2=C(c3ccc(CCC(=O)O)c(F)c3F)C(=C/C=C3/N(CCCCS(=O)(=O)[O-])c4ccc(S(=O)(=O)[O-])cc4C3(C)C)/CCC2)=[N+](CCCCS(=O)(=O)[O-])c2ccc(S(=O)(=O)[O-])cc21.[Na+].[Na+].[Na+] : ____
Result: 776

Source of measurements: patent US9089603B2
